From: paper PMC9667936

Recorded Fold change to 1 for the following compounds
# measured target: 14-3-3γ (Homo sapiens, UniProt P61981)
# Construct: made in house; host or cells: E. coli NiCo21 (DE3)
# test method notes: Fluorescence anisotropy (FA) binary binding study: 14-3-3 titrated to fluorescein-labelled peptide
# test conditions: Table S4; FA Kd / Kd of 1; replicate 3
Where a SMILES comes first, the peptide text is derived from it. [ ]: non-standard residue; d: D form. ξ: configuration not given here. Phe(4-NO2) = N[C@@H](Cc1ccc([N+](=O)[O-])cc1)C(=O)O; ξAla(4-thiazolyl) = NC(Cc1cscn1)C(=O)O; pS = N[C@@H](COP(=O)(O)O)C(=O)O; β3hS = N[C@@H](CO)CC(=O)O; Nva = CCC[C@H](N)C(=O)O; βAla = NCCC(=O)O
Please reply with the value in numeric form only.

Example results:
CCC[C@H](NC(=O)[C@H](N)CCCCN)C(=O)N[C@@H](Cc1ccc([N+](=O)[O-])cc1)C(=O)NC(Cc1cscn1)C(=O)N[C@@H](COP(=O)(O)O)C(=O)N[C@@H](Cc1ccc(O)cc1)C(=O)N[C@@H](CO)CC(=O)NCCC(=O)N[C@@H](Cc1ccc([N+](=O)[O-])cc1)C(=O)N[C@@H](CCCCN)C(N)=O (stereo partly drawn) [4a] (H-[dK][Nva][Phe(4-NO2)][ξAla(4-thiazolyl)][pS]Y[β3hS][βAla][Phe(4-NO2)]K-NH2; N-terminus and C-terminus assumed) = 0.9
CCC[C@H](NC(=O)[C@H](N)CCCCN)C(=O)N[C@@H](Cc1ccc([N+](=O)[O-])cc1)C(=O)NC(Cc1cscn1)C(=O)N[C@@H](COP(=O)(O)O)C(=O)N[C@@H](Cc1ccc([N+](=O)[O-])cc1)C(=O)N[C@@H](CO)CC(=O)NCCC(=O)N[C@@H](C)C(=O)N[C@@H](CCCCN)C(N)=O (stereo partly drawn) [5c] (H-[dK][Nva][Phe(4-NO2)][ξAla(4-thiazolyl)][pS][Phe(4-NO2)][β3hS][βAla]AK-NH2; N-terminus and C-terminus assumed) = 39.8
CCC[C@H](NC(=O)[C@H](N)CCCCN)C(=O)N[C@@H](Cc1ccc([N+](=O)[O-])cc1)C(=O)NC(Cc1cscn1)C(=O)N[C@@H](COP(=O)(O)O)C(=O)N[C@@H](Cc1ccccc1)C(=O)N[C@@H](CO)CC(=O)NCCC(=O)N[C@@H](Cc1ccc([N+](=O)[O-])cc1)C(=O)N[C@@H](CCCCN)C(N)=O (stereo partly drawn) [4b] (H-[dK][Nva][Phe(4-NO2)][ξAla(4-thiazolyl)][pS]F[β3hS][βAla][Phe(4-NO2)]K-NH2; N-terminus and C-terminus assumed) = 1.2

Consider CCC[C@H](NC(=O)[C@H](N)CCCCN)C(=O)N[C@@H](Cc1ccc([N+](=O)[O-])cc1)C(=O)NC(Cc1cscn1)C(=O)N[C@@H](COP(=O)(O)O)C(=O)N[C@@H](C)C(=O)N[C@@H](CO)CC(=O)NCCC(=O)N[C@@H](Cc1ccc([N+](=O)[O-])cc1)C(=O)N[C@@H](CCCCN)C(N)=O (stereo partly drawn) [4c] (H-[dK][Nva][Phe(4-NO2)][ξAla(4-thiazolyl)][pS]A[β3hS][βAla][Phe(4-NO2)]K-NH2; N-terminus and C-terminus assumed) . Its measured Fold change to 1 is 21.3

# Fold change to 1 of CCC[C@H](NC(=O)[C@H](N)CCCCN)C(=O)N[C@@H](Cc1ccc([N+](=O)[O-])cc1)C(=O)NC(Cc1cscn1)C(=O)N[C@@H](COP(=O)(O)O)C(=O)N[C@@H](Cc1ccc([N+](=O)[O-])cc1)C(=O)N[C@@H](CO)CC(=O)NCCC(=O)N[C@@H](Cc1ccccc1)C(=O)N[C@@H](CCCCN)C(N)=O (stereo partly drawn) [5b] (H-[dK][Nva][Phe(4-NO2)][ξAla(4-thiazolyl)][pS][Phe(4-NO2)][β3hS][βAla]FK-NH2; N-terminus and C-terminus assumed) = 24.9

What the record says about CCC[C@H](NC(=O)[C@H](N)CCCCN)C(=O)N[C@@H](Cc1ccc([N+](=O)[O-])cc1)C(=O)N[C@@H](C)C(=O)N[C@@H](COP(=O)(O)O)C(=O)N[C@@H](Cc1ccc([N+](=O)[O-])cc1)C(=O)N[C@@H](CO)CC(=O)NCCC(=O)N[C@@H](Cc1ccc([N+](=O)[O-])cc1)C(=O)N[C@@H](CCCCN)C(N)=O [3a] (H-[dK][Nva][Phe(4-NO2)]A[pS][Phe(4-NO2)][β3hS][βAla][Phe(4-NO2)]K-NH2; N-terminus and C-terminus assumed) : Fold change to 1 is 1.0

----------
# measured target: 14-3-3γ (Homo sapiens)
# Construct: made in house; host or cells: E. coli NiCo21 (DE3)
# Sequence (P61981 1-247): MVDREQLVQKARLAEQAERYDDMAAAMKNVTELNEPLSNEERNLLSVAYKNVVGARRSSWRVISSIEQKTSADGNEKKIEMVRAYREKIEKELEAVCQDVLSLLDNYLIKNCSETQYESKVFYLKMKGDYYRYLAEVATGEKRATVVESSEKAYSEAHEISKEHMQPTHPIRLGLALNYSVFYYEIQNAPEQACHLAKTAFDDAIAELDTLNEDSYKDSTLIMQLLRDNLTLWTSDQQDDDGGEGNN
# test method notes: Isothermal titration calorimetry (ITC) of 14-3-3 binding to peptide
# test conditions: Table S6; ITC, 25 °C; run 2
Where a SMILES comes first, the peptide text is derived from it. [ ]: non-standard residue; d: D form. ξ: configuration not given here. Phe(4-NO2) = N[C@@H](Cc1ccc([N+](=O)[O-])cc1)C(=O)O; ξAla(4-thiazolyl) = NC(Cc1cscn1)C(=O)O; pS = N[C@@H](COP(=O)(O)O)C(=O)O; β3hS = N[C@@H](CO)CC(=O)O; Nva = CCC[C@H](N)C(=O)O; βAla = NCCC(=O)O
measured quantity: -TΔS

CCC[C@H](NC(=O)[C@H](N)CCCCN)C(=O)N[C@@H](Cc1ccc([N+](=O)[O-])cc1)C(=O)NC(Cc1cscn1)C(=O)N[C@@H](COP(=O)(O)O)C(=O)N[C@@H](Cc1ccc([N+](=O)[O-])cc1)C(=O)N[C@@H](CO)CC(=O)NCCC(=O)N[C@@H](Cc1ccccc1)C(=O)N[C@@H](CCCCN)C(N)=O (stereo partly drawn) [5b] (H-[dK][Nva][Phe(4-NO2)][ξAla(4-thiazolyl)][pS][Phe(4-NO2)][β3hS][βAla]FK-NH2; N-terminus and C-terminus assumed) = -3,096 kcal mol^-1

Consider the record given below.
Briefly, -TΔS measured for CCC[C@H](NC(=O)[C@H](N)CCCCN)C(=O)N[C@@H](Cc1ccc([N+](=O)[O-])cc1)C(=O)NC(Cc1cscn1)C(=O)N[C@@H](COP(=O)(O)O)C(=O)N[C@@H](Cc1ccc([N+](=O)[O-])cc1)C(=O)N[C@@H](CO)CC(=O)NCCC(=O)N[C@@H](Cc1ccc(O)cc1)C(=O)N[C@@H](CCCCN)C(N)=O (stereo partly drawn) [5a] (H-[dK][Nva][Phe(4-NO2)][ξAla(4-thiazolyl)][pS][Phe(4-NO2)][β3hS][βAla]YK-NH2; N-terminus and C-terminus assumed) : -3,299 kcal mol^-1

----------
Measured Fold change to 1 of individual entries
# measured target: 14-3-3γ (Homo sapiens, UniProt P61981)
# Construct: made in house; host or cells: E. coli NiCo21 (DE3)
# test method notes: Fluorescence anisotropy (FA) binary binding study: 14-3-3 titrated to fluorescein-labelled peptide
# test conditions: Table S4; FA Kd of peptide divided by Kd of 1; mean of n = 3
Where a SMILES comes first, the peptide text is derived from it. [ ]: non-standard residue; d: D form. ξ: configuration not given here. Phe(4-NO2) = N[C@@H](Cc1ccc([N+](=O)[O-])cc1)C(=O)O; ξAla(4-thiazolyl) = NC(Cc1cscn1)C(=O)O; pS = N[C@@H](COP(=O)(O)O)C(=O)O; β3hS = N[C@@H](CO)CC(=O)O; Nva = CCC[C@H](N)C(=O)O; βAla = NCCC(=O)O

// solved cases for Fold change to 1 follow
CCC[C@H](NC(=O)[C@H](N)CCCCN)C(=O)N[C@@H](Cc1ccc([N+](=O)[O-])cc1)C(=O)NC(Cc1cscn1)C(=O)N[C@@H](COP(=O)(O)O)C(=O)N[C@@H](Cc1ccc([N+](=O)[O-])cc1)C(=O)N[C@@H](CO)CC(=O)NCCC(=O)N[C@@H](Cc1ccc(O)cc1)C(=O)N[C@@H](CCCCN)C(N)=O (stereo partly drawn) [5a] (H-[dK][Nva][Phe(4-NO2)][ξAla(4-thiazolyl)][pS][Phe(4-NO2)][β3hS][βAla]YK-NH2; N-terminus and C-terminus assumed) = 24.2
CCC[C@H](NC(=O)[C@H](N)CCCCN)C(=O)N[C@@H](Cc1ccc([N+](=O)[O-])cc1)C(=O)NC(Cc1cscn1)C(=O)N[C@@H](COP(=O)(O)O)C(=O)N[C@@H](Cc1ccc([N+](=O)[O-])cc1)C(=O)N[C@@H](CO)CC(=O)NCCC(=O)N[C@@H](Cc1ccccc1)C(=O)N[C@@H](CCCCN)C(N)=O (stereo partly drawn) [5b] (H-[dK][Nva][Phe(4-NO2)][ξAla(4-thiazolyl)][pS][Phe(4-NO2)][β3hS][βAla]FK-NH2; N-terminus and C-terminus assumed) = 22.0
CCC[C@H](NC(=O)[C@H](N)CCCCN)C(=O)N[C@@H](Cc1ccc([N+](=O)[O-])cc1)C(=O)NC(Cc1cscn1)C(=O)N[C@@H](COP(=O)(O)O)C(=O)N[C@@H](Cc1ccccc1)C(=O)N[C@@H](CO)CC(=O)NCCC(=O)N[C@@H](Cc1ccc([N+](=O)[O-])cc1)C(=O)N[C@@H](CCCCN)C(N)=O (stereo partly drawn) [4b] (H-[dK][Nva][Phe(4-NO2)][ξAla(4-thiazolyl)][pS]F[β3hS][βAla][Phe(4-NO2)]K-NH2; N-terminus and C-terminus assumed) = 0.8
CCC[C@H](NC(=O)[C@H](N)CCCCN)C(=O)N[C@@H](Cc1ccc([N+](=O)[O-])cc1)C(=O)NC(Cc1cscn1)C(=O)N[C@@H](COP(=O)(O)O)C(=O)N[C@@H](C)C(=O)N[C@@H](CO)CC(=O)NCCC(=O)N[C@@H](Cc1ccc([N+](=O)[O-])cc1)C(=O)N[C@@H](CCCCN)C(N)=O (stereo partly drawn) [4c] (H-[dK][Nva][Phe(4-NO2)][ξAla(4-thiazolyl)][pS]A[β3hS][βAla][Phe(4-NO2)]K-NH2; N-terminus and C-terminus assumed) = 20.8
CCC[C@H](NC(=O)[C@H](N)CCCCN)C(=O)N[C@@H](Cc1ccc([N+](=O)[O-])cc1)C(=O)N[C@@H](C)C(=O)N[C@@H](COP(=O)(O)O)C(=O)N[C@@H](Cc1ccc([N+](=O)[O-])cc1)C(=O)N[C@@H](CO)CC(=O)NCCC(=O)N[C@@H](Cc1ccc([N+](=O)[O-])cc1)C(=O)N[C@@H](CCCCN)C(N)=O [3a] (H-[dK][Nva][Phe(4-NO2)]A[pS][Phe(4-NO2)][β3hS][βAla][Phe(4-NO2)]K-NH2; N-terminus and C-terminus assumed) = 1.2
CCC[C@H](NC(=O)[C@H](N)CCCCN)C(=O)N[C@@H](Cc1ccc([N+](=O)[O-])cc1)C(=O)NC(Cc1cscn1)C(=O)N[C@@H](COP(=O)(O)O)C(=O)N[C@@H](Cc1ccc(O)cc1)C(=O)N[C@@H](CO)CC(=O)NCCC(=O)N[C@@H](Cc1ccc([N+](=O)[O-])cc1)C(=O)N[C@@H](CCCCN)C(N)=O (stereo partly drawn) [4a] (H-[dK][Nva][Phe(4-NO2)][ξAla(4-thiazolyl)][pS]Y[β3hS][βAla][Phe(4-NO2)]K-NH2; N-terminus and C-terminus assumed) = 0.8

Consider now this further compound.
Per the records, this compound ( CCC[C@H](NC(=O)[C@H](N)CCCCN)C(=O)N[C@@H](Cc1ccc([N+](=O)[O-])cc1)C(=O)NC(Cc1cscn1)C(=O)N[C@@H](COP(=O)(O)O)C(=O)N[C@@H](Cc1ccc([N+](=O)[O-])cc1)C(=O)N[C@@H](CO)CC(=O)NCCC(=O)N[C@@H](C)C(=O)N[C@@H](CCCCN)C(N)=O (stereo partly drawn) [5c] (H-[dK][Nva][Phe(4-NO2)][ξAla(4-thiazolyl)][pS][Phe(4-NO2)][β3hS][βAla]AK-NH2; N-terminus and C-terminus assumed) ) has Fold change to 1 equal to 44.3
